Entries and their GI50
Test system: OVCAR-4
procedureSummary: NCI tumour cell line growth inhibition, 48 h
Calls of active or inactive are those of the source. Cut-off read from the data, not from the text of the source: active = GI50 up to about 1.1 µM and inactive = higher.

- compound: "COC(=O)CC1N/C(=N\\C#N)N(CCc2c[nH]c3ccccc23)C1=O (stereo not drawn)"
  GI50: "> 100 µM (inactive)"
- compound: "CN(C)CCC(=O)[C@@]1(O)CC[C@H]2[C@@H]3CC=C4C[C@@H](O)CC[C@]4(C)[C@H]3CC[C@@]21C"
  GI50: "33.4 µM (inactive)"
- compound: "C[C@@H](CC(O)C(O)C(C)(C)O)C1CCC23CC12CCC1[C@@]2(C)CCC(=O)C(C)(C)C2CC(OC2OC(CO)C(O)C(O)C2O)[C@]13C (stereo partly drawn)"
  GI50: "> 10 µM (inactive)"
- compound: "Cc1nc(N)nc(CCC(=O)Nc2cccc(C(F)(F)F)c2)c1-c1ccc(Cl)cc1"
  GI50: "> 100 µM (inactive)"
- compound: "O=C1c2ccccc2-c2nc(-c3cccc([N+](=O)[O-])c3)nnc21"
  GI50: "15.4 µM (inactive)"

Q) Fill in: GI50 of C/C(=C\COc1cc(O)c2c(c1)C(=O)c1cc(C)cc(O)c1C2=O)CCC1OC1(C)C (stereo not drawn) is ___
A) 37.8 µM (inactive)

Q) Fill in: GI50 of NC(=O)C1CCCN1Cc1ccc2c(c1)OCO2 (stereo not drawn) is ___
A) > 100 µM (inactive)

Q) Fill in: GI50 of `O=S1(=O)COc2ccccc2-c2ncncc21` is ___
A) > 100 µM (inactive)

====

Tested on: RXF 393
procedureSummary: NCI tumour cell line growth inhibition, 48 h
Active and inactive are the calls of the source. Rule as the data show it: active = GI50 up to about 1.1 µM and inactive = higher.
# valid calls are active, inactive; nothing else

Q) In this assay, the call recorded for `Nc1nc(N)nc(-c2cnc3ccccc3c2)n1` was what?
A) inactive

Q) In this assay, the call recorded for O=C1N/C(=N\N=C\c2ccccc2)C(c2ccccc2)O1 (stereo not given) was what?
A) inactive

Q) In this assay, the call recorded for CC[C@]12C=CCN3CCC4(c5cc([C@@]6(C(=O)OC)CC7CN(CCc8c6[nH]c6ccccc86)C[C@@H]6CCC[C@H]76)c(OC)cc5N(C)C4[C@](O)(C(=O)OC)C1OC(C)=O)C32 (stereo not given in full) was what?
A) active

Q) In this assay, the call recorded for `N#C/C(=C\c1ccncc1)c1csc2ccccc12` was what?
A) inactive

Q) In this assay, the call recorded for `CCN(CC)CCCNc1ccc2nnn3c4ccc(O)cc4c(=O)c1c23` was what?
A) inactive

====

Tested on: U-251
procedureSummary: NCI tumour cell line growth inhibition, 48 h
The source made the active and inactive calls. No stated cut-off is given here; in the data, active = GI50 up to about 1.1 µM and inactive = higher. Where a SMILES comes first, the peptide text is derived from it. [ ]: non-standard residue; d: D form. The star is where a group is joined. ξ: configuration not given here. NMeF = CN[CH](Cc1ccccc1)C(=O)O; ξNMe2Val = CC(C)C(C(=O)*)N(C)C; NMeV = CN[CH](C(=O)O)C(C)C; OtBu = CC(C)(C)O*
recordedMetric: GI50

These recorded examples may help you get a feel for the data.
- compound: "CS(=O)(=O)N1CC(CCl)c2ccc([N+](=O)[O-])cc21 (stereo not given)"
  GI50: "58.6 µM (inactive)"
- compound: "CCOC(=O)C(Cl)(NC(=O)c1ccc(F)cc1)C(F)(F)F (stereo not given)"
  GI50: "> 100 µM (inactive)"
- compound: "O=c1[nH]c(Nc2nc3ccccc3[nH]2)nc(O)c1-c1ccccc1"
  GI50: "82.2 µM (inactive)"
- compound: "CCOC(=O)c1cc(C2CCN(c3ccccc3)C2=O)c(C(=O)/C=C(/C)O)[nH]1 (stereo not given)"
  GI50: "> 100 µM (inactive)"

Please look at the following compound next.
Q) Fill in: GI50 of CC(C)C(C(=O)N(C)C(Cc1ccccc1)C(=O)N(C)C(C(=O)N(C)C(C(=O)N1CCCC1C(=O)OC(C)(C)C)C(C)C)C(C)C)N(C)C (stereo not given) (ξNMe2Val-[NMeF][NMeV][NMeV]P-OtBu; configuration not given here) is ___
A) > 10 µM (inactive)

====

Entries and their GI50
Tested on: MDA-N
procedureSummary: NCI tumour cell line growth inhibition, 48 h
Counter-ions that a name gives are not always drawn. The source made the active and inactive calls. Cut-off read from the data, not from the text of the source: active = GI50 up to about 1.1 µM and inactive = higher.

These recorded examples may help you get a feel for the data.
- compound: "O=C(Cc1ccccc1)N/N=C1\\C(=O)Nc2ccccc21"
  observedValue: "> 100 µM (inactive)"
- compound: "CC1CNC(NS(=O)(=O)c2cc(C(=O)Nc3ccccc3)c(Cl)cc2S)=NN1 (centres undefined)"
  observedValue: "24.9 µM (inactive)"

Q) Fill in: GI50 of O=C1C(CN2CCCC2)CCC1CN1CCCC1 (centres undefined) is ___
A) 16 µM (inactive)

Q) Fill in: GI50 of `COc1cc(CNc2nc3cc(C(F)(F)F)ccc3nc2-c2ccccc2)cc(OC)c1OC` is ___
A) 30.6 µM (inactive)

Q) Fill in: GI50 of `O=P(O)(CCP(=O)(O)c1ccccc1)c1ccccc1` is ___
A) > 100 µM (inactive)

Q) Fill in: GI50 of C[C@@H](CC(O)C(O)C(C)(C)O)C1CCC23CC12CCC1[C@@]2(C)CCC(=O)C(C)(C)C2CC(OC2OC(CO)C(O)C(O)C2O)[C@]13C (some centres undefined) is ___
A) > 10 µM (inactive)

Q) Fill in: GI50 of `CC(C)(C)C(=O)C(C(=O)C(C)(C)C)C(=O)C(C)(C)C` is ___
A) > 100 µM (inactive)

Q) Fill in: GI50 of `O=C(c1ccccc1)c1cc(-c2ccccc2)c(-c2ccccc2)[nH]c(=O)c1=O` is ___
A) 38.5 µM (inactive)

Q) Fill in: GI50 of `O=c1[nH]c(=O)n(COCCO)cc1-c1ccccc1` is ___
A) > 100 µM (inactive)

Q) Fill in: GI50 of C=Cc1c(C)c2cc3nc(c4c5[nH]c(cc6nc(cc1[nH]2)C(C)=C6CC)c(C)c5C(=O)C4C(=O)OC)C(CCC(=O)OC)C3C (centres undefined) is ___
A) > 100 µM (inactive)

Q) Fill in: GI50 of `COc1ccc(/C=N/N2C(=O)c3c(N)c(C#N)c(-c4ccccc4)c(-c4ccccc4)c3C2=O)cc1` is ___
A) > 100 µM (inactive)

Q) Fill in: GI50 of `Clc1ccc(Cc2nc3cc(CCN4CCN(c5ccccc5)CC4)ccc3[nH]2)cc1` is ___
A) 15.3 µM (inactive)

Q) Fill in: GI50 of CN1CCC(CN2c3ccccc3Sc3ccccc32)C1 (centres undefined) [METHDILAZINE HYDROCHLORIDE] is ___
A) 14.1 µM (inactive)

Q) Fill in: GI50 of `O=c1c2ccccc2n2c(-c3ccccc3O)nnc2n1-c1ccccc1` is ___
A) > 100 µM (inactive)

====

Tested on: MDA-MB-435
procedureSummary: NCI tumour cell line growth inhibition, 48 h
The source made the active and inactive calls. Rule as the data show it: active = GI50 up to about 1.1 µM and inactive = higher.
# valid calls are Yes (active), No (inactive); nothing else

Consider the following illustrative entries.
- compound: "CC(=O)Oc1ccc2cc(-c3ccc(OC(C)=O)c(OC(C)=O)c3)c(=O)oc2c1"
  cat: "No"
- compound: "Cc1ccc(S(=O)(=O)NC(=O)NC(Cc2ccc(O)c(O)c2)C(=O)O)cc1 (stereo not drawn)"
  cat: "No"

Shifting focus to the compound that follows.
Q) In this assay, the call recorded for `COC[C@H]1C(=O)NCC(=O)N2N=CCC[C@H]2C(=O)N(O)[C@H](C)C(=O)O[C@@H](C(C)C)[C@H](NC(=O)[C@@](C)(O)[C@]2(O)CC[C@@H](CC(C)C)[C@H](C)O2)C(=O)N2NCCC[C@@H]2C(=O)N1O` was what?
A) Yes

====

System: NCI-H226
procedureSummary: NCI tumour cell line growth inhibition, 48 h
The source made the active and inactive calls. Rule as the data show it: active = GI50 up to about 1.1 µM and inactive = higher.
# valid calls are active, inactive; nothing else

Consider the following illustrative entries.
- compound: "CCC/C=C1\\CCC(CN(C)C)C1=O (configuration not stated)"
  cat: "inactive"
- compound: "O=c1c2ccccc2n2c(-c3ccccc3O)nnc2n1-c1ccccc1"
  cat: "inactive"
- compound: "Cc1ccc([N+](=O)[O-])cc1S(=O)(=O)Nc1ccc(C2=NNC(c3ccccc3O)C2)cc1 (configuration not stated)"
  cat: "inactive"
- compound: "CC(C)(C)C(=O)ON1N=NC2C3CC(OCc4ccccc4)(OCc4ccccc4)C(O3)C21 (configuration not stated)"
  cat: "inactive"
- compound: "CCOC(=O)CCC(NC(=O)c1ccc(CNc2nc3ccccc3nc2C(=O)OCC)cc1)C(=O)OCC (configuration not stated)"
  cat: "inactive"

Q) In this assay, the call recorded for CC(=O)NC(CCCCN(Cc1ccccc1)C(=O)NCCCl)C(=O)NCc1ccccc1 (configuration not stated) was what?
A) inactive

Q) In this assay, the call recorded for `CCc1nc(N)nc(N)c1-c1ccc(NC)c([N+](=O)[O-])c1` was what?
A) inactive

Q) In this assay, the call recorded for `CCCn1cnc2c(/N=N/O)ncnc21` was what?
A) inactive

Q) In this assay, the call recorded for `CC(=O)NC1=C(NCC(C)C)C(=O)c2ccccc2C1=O` was what?
A) inactive

Q) In this assay, the call recorded for `O=C(NCCCN(CCCCN(CCCNC(=O)c1cc(S(=O)(=O)O)cc(O)c1O)C(=O)c1cc(S(=O)(=O)O)cc(O)c1O)C(=O)c1cc(S(=O)(=O)O)cc(O)c1O)c1cc(S(=O)(=O)O)cc(O)c1O` was what?
A) inactive

Q) In this assay, the call recorded for `CN(N)C(=O)NCCCl` was what?
A) active

Q) In this assay, the call recorded for CC(=O)OCC1OC(OCCCOP(=O)(OCCC#N)OCC2OC(n3cnc4c(N)ncnc43)C(OC(=O)c3ccccc3)C2OC(=O)c2ccccc2)C(OC(C)=O)C(OC(C)=O)C1OC(C)=O (configuration not stated) was what?
A) inactive
